System: glycogen synthase kinase-3 (GSK3A per assay name; protocol says GSK3B)
protocol notes: compounds binding glycogen synthase kinase-3 – biochemical, small-molecule microarray, 635 nm fluorescence, GSK3A, primary screen (AID 1103); note: the record names both GSK3A and GSK3B
conditions: fluorescence 635 nm, higher = more signal
Class criterion met: composite z-score at least 1. Class criterion not met: composite z-score below 1.

INSERT INTO measurements (compound, qualitative_label) VALUES
  ('C=C(C(=O)CC[C@H](OC(=O)c1ccccc1-c1ccccc1C(=O)O)c1cccc(OCCO)c1)C(C)C', 'criterion not met'),
  ('CN(C)C(=O)[C@@]1(Cc2ccccc2)N=C(c2ccc(OCCCO)cc2)O[C@H]1c1ccccc1', 'criterion met'),
  ('CN1C(=O)C2C=CC(C(O)c3cccn3C)N(Nc3ccc([N+](=O)[O-])cc3[N+](=O)[O-])C2C1=O (configuration not stated)', 'criterion not met'),
  ('COCCOC(=O)N1C(=O)[C@@]2(c3cc(C#CC4(O)CCCCCC4)ccc31)[C@H](c1ccc(O)cc1)N1[C@H](c3ccccc3)[C@H](c3ccccc3)OC(=O)[C@H]1[C@@H]2C(=O)N1CCN(c2ncccn2)CC1', 'criterion not met'),
  ('COC(=O)C1=CC(CCCO)=CC(c2cccs2)N(Cc2cccc(OC(F)(F)F)c2)C=C1C(=O)OC (configuration not stated)', 'criterion met'),
  ('COCCOC(=O)N1C(=O)[C@@]2(c3cc(C#CC4=CCCCC4)ccc31)[C@H](c1ccccc1OCCO)N1[C@H](c3ccccc3)[C@H](c3ccccc3)OC(=O)[C@H]1[C@@H]2C(=O)NC[C@H](O)c1ccccc1', 'criterion met'),
  ('COc1cc(NN2C(C(O)c3ccco3)C=CC3C(=O)N(C)C(=O)C32)cc(OC)c1OC (configuration not stated)', 'criterion met');

---

tested system: Dickkopf-related protein 1 (Homo sapiens) (UniProt O94907)
Sequence (O94907 whole entry, looked up): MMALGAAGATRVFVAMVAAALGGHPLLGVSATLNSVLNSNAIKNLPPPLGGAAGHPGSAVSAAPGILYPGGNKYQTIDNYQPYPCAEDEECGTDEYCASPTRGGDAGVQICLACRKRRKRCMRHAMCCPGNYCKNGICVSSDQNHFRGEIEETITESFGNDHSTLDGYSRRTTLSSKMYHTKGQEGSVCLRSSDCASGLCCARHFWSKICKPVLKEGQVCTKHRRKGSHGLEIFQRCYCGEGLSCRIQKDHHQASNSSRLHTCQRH
protocol notes: small molecules binding DKK1 protein – biochemical, small-molecule microarray, 635 nm fluorescence scan, primary screen (AID 1106);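 note: score merges emission near 667 nm with signal to noise over three replicate slides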
conditions: higher = more signal
Class Condition met: composite z-score at least -0.2. Class Condition not met: composite z-score below -0.2.

INSERT INTO measurements (molecule, tested_system, qualitative_label) VALUES
  ('C=CCNC(=O)[C@@H]1[C@H]2C(=O)O[C@H](c3ccccc3)[C@H](c3ccccc3)N2[C@H](c2ccc(OCCO)cc2)[C@@]12C(=O)N(C(=O)OCCOC)c1ccc(C#Cc3ccc(OC)cc3)cc12', 'Dickkopf-related protein 1 (Homo sapiens) (UniProt O94907)', 'Condition met'),
  ('CCCCCCCCCC(O)C1C=CC2C(=O)N(c3ccccc3)C(=O)C2N1Nc1cc(OC)c(OC)c(OC)c1 (configuration not stated)', 'Dickkopf-related protein 1 (Homo sapiens) (UniProt O94907)', 'Condition not met'),
  ('COc1cc2c(cc1O)C(c1ccc(CN3CCCC3)cc1)N(Cc1cc3c(cc1Br)OCO3)CC2 (configuration not stated)', 'Dickkopf-related protein 1 (Homo sapiens) (UniProt O94907)', 'Condition not met'),
  ('COc1ccc([Si](C)(C)[C@@H]2[C@@H](CCO)O[C@]3(C(=O)N(Cc4cccc(NC(=O)[C@H](C)O)c4)c4ccccc43)[C@H]2C)cc1', 'Dickkopf-related protein 1 (Homo sapiens) (UniProt O94907)', 'Condition met'),
  ('C=C(COC)C(=O)CC[C@@H](OC(C)=O)c1cccc(OCCO)c1', 'Dickkopf-related protein 1 (Homo sapiens) (UniProt O94907)', 'Condition met'),
  ('CCCC=C(CCC)[C@@H](NC(=O)C(C)(C)C)c1ccc(C(=O)OC)cc1', 'Dickkopf-related protein 1 (Homo sapiens) (UniProt O94907)', 'Condition not met'),
  ('CCCCCN1CC=CC23O[C@@H]4/C=C\CCCOC(=O)C4[C@H]2C(=O)N(C(C)CO)[C@@H]3C1=O (some centres not stated)', 'Dickkopf-related protein 1 (Homo sapiens) (UniProt O94907)', 'Condition not met'),
  ('CCC1=C2CN(Cc3ccccc3)[C@@H](C(=O)Cc3ccccc3)C2C=CCC1 (some centres not stated)', 'Dickkopf-related protein 1 (Homo sapiens) (UniProt O94907)', 'Condition met'),
  ('CC(C)c1ccc(NN2C(C(O)c3ccc(C#N)cc3)C=CC3C(=O)N(c4ccccc4)C(=O)C32)cc1 (configuration not stated)', 'Dickkopf-related protein 1 (Homo sapiens) (UniProt O94907)', 'Condition met'),
  ('COc1ccc([Si](C)(C)[C@H]2[C@H](CC(=O)N3CCC[C@H]3CO)O[C@@]3(C(=O)N(Cc4ccc(N5CCOC5=O)cc4)c4ccccc43)[C@@H]2C)cc1', 'Dickkopf-related protein 1 (Homo sapiens) (UniProt O94907)', 'Condition met'),
  ('Cc1ccc(NN2C(C(O)c3c(F)cccc3Cl)C=CC3C(=O)N(C4CCCCC4)C(=O)C32)cc1 (configuration not stated)', 'Dickkopf-related protein 1 (Homo sapiens) (UniProt O94907)', 'Condition not met'),
  ('COc1ccc(CCNC(=O)[C@@H]2c3ccccc3C(=O)N(C3CCCCC3)[C@H]2c2ccc(CO)cc2)cc1', 'Dickkopf-related protein 1 (Homo sapiens) (UniProt O94907)', 'Condition not met'),
  ('CCOc1cc(C(O)C2C=CC3C(=O)NC(=O)C3N2Nc2ccc(Cl)cc2Cl)ccc1O (configuration not stated)', 'Dickkopf-related protein 1 (Homo sapiens) (UniProt O94907)', 'Condition not met'),
  ('COc1cc(NN2C(C(O)c3ccc(N(C)C)cc3)C=CC3C(=O)N(c4ccccc4)C(=O)C32)cc(OC)c1OC (configuration not stated)', 'Dickkopf-related protein 1 (Homo sapiens) (UniProt O94907)', 'Condition not met'),
  ('COc1cc2c(cc1O)C(c1cccs1)N(Cc1cc3c(cc1Br)OCO3)CC2 (configuration not stated)', 'Dickkopf-related protein 1 (Homo sapiens) (UniProt O94907)', 'Condition met'),
  ('CCCN1C(=O)[C@@]2(Cc3ccccc31)N=C(c1ccc(OCCCO)cc1)O[C@H]2c1ccccc1', 'Dickkopf-related protein 1 (Homo sapiens) (UniProt O94907)', 'Condition met');
